Data origin, for the record: ChEMBL document CHEMBL1201862

biological target: Cytochrome P450 2C9 (Homo sapiens, UniProt P11712)
Sequence (P11712 whole entry): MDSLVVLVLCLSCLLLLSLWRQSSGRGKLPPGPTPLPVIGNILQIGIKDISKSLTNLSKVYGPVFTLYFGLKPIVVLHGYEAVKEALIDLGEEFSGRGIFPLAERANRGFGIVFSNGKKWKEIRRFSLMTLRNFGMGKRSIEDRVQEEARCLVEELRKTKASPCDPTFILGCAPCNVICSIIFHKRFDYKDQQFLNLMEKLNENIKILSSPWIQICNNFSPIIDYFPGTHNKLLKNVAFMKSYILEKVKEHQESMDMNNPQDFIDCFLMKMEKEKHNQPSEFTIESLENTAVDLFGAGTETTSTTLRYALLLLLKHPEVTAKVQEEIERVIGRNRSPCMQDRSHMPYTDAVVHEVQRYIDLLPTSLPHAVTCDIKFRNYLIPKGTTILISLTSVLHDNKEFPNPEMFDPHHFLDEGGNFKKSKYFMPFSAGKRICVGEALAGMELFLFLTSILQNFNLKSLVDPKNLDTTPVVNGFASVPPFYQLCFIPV
AC50 values by entry
measured metric: AC50

>  <smiles notation>
CC(C)(C)c1cccc(Oc2nn[nH]n2)c1

>  <measured metric>
AC50

>  <readout value>
25.1 µM (inconclusive)

$$$$
>  <smiles notation>
C=C(CC1([C@@H](NP(=O)(c2ccccc2)c2ccccc2)[C@H]2C[C@@H]2CCN(C(=O)OCC)S(=O)(=O)c2ccc(C)cc2)CC1)c1ccccc1

>  <measured metric>
AC50

>  <readout value>
5.01 µM (inconclusive)

$$$$
>  <smiles notation>
Nc1c(C(=O)NCc2ccccc2)sc2nc3c(cc12)C(=O)CCC3

>  <measured metric>
AC50

>  <readout value>
1.41 µM (inconclusive)

$$$$
>  <smiles notation>
Cc1ccc(-c2nn(C)c(=O)c3ccccc23)cc1CNC(=O)Cn1nc(-c2ccccc2)c2ccccc2c1=O

>  <measured metric>
AC50

>  <readout value>
11.2 µM (inconclusive)

$$$$
>  <smiles notation>
CCc1nnc(NC(=O)C2CCN(C(=O)NC3CCCCC3)CC2)s1

>  <measured metric>
AC50

>  <readout value>
20 µM (inconclusive)

$$$$
>  <smiles notation>
COc1ccc(S(=O)(=O)N2CCCN(CCC(=O)Nc3cccc(C(F)(F)F)c3)CC2)cc1

>  <measured metric>
AC50

>  <readout value>
39.8 µM (inconclusive)

$$$$
>  <smiles notation>
CC(C)Sc1cc(N2CCCC2)nc(-c2ccc(F)cc2)n1

>  <measured metric>
AC50

>  <readout value>
7.94 µM (inconclusive)

$$$$
>  <smiles notation>
COC(=O)[C@@]1(Cc2ccc(F)cc2)[C@@H]2[C@@H](CC(=O)[C@H]2CC(=O)C(=O)N2CCCC2)CN1C(=O)c1ccccc1

>  <measured metric>
AC50

>  <readout value>
39.8 µM (inconclusive)

$$$$
>  <smiles notation>
O=C(NCCN1CCCCC1)c1ccc(I)cc1

>  <measured metric>
AC50

>  <readout value>
31.6 µM (inconclusive)

$$$$
>  <smiles notation>
CCOC(=O)Nc1ccc(S(=O)(=O)NCc2ccccc2)cc1

>  <measured metric>
AC50

>  <readout value>
5.62 µM (inconclusive)

$$$$

---

experiment: NIH-3T3 fibroblast cytotoxicity, dose response, cytotoxicity control, cell-based, fluorescence, Alamar Blue, secondary assay (AID 2327); format: functional;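 note: NIH-3T3 mouse fibroblasts cultured with fluconazole at 8 µg/mL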
The source made the active and inactive calls.
EC50 values by entry

>  <molecule>
CCCCn1c(CN2CCN(C(=O)OCC)CC2)nc2c1c(=O)n(C)c(=O)n2C

>  <EC50>
> 150 µM (inactive)

$$$$
>  <molecule>
Cc1ccc(C(=O)Cn2cc(-c3ccc(C)cc3)[n+]3c2CCCCC3)cc1

>  <EC50>
> 150 µM (inactive)

$$$$
>  <molecule>
CCCCC(=O)NC(c1ccc(N(C)C)cc1)c1ccc2cccnc2c1O (stereo not given)

>  <EC50>
28.4 µM (inconclusive)

$$$$
>  <molecule>
CCCCCCCCCC(=O)NNC(=O)c1c(O)c2ccccc2n(CC)c1=O

>  <EC50>
> 160 µM (inactive)

$$$$
>  <molecule>
Cc1nc2ccc(NC(=O)COc3ccccc3)cc2s1

>  <EC50>
> 150 µM (inactive)

$$$$

---

Molecular target: UniProt:Q96LD8
Sequence (Q96LD8 whole entry): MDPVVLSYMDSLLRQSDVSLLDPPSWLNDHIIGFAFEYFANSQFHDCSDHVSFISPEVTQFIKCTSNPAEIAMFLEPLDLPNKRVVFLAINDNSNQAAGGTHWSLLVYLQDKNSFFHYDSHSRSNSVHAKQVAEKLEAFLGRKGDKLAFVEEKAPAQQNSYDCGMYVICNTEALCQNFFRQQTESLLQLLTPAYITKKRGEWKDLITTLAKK
Assay type: functional
Calls of active or inactive are those of the source.
Outcome codes: active, inactive

>  <molecule>
CC(C)c1ccc(/N=C/c2c(O)oc3ccccc3c2=O)cc1

>  <group label>
active

$$$$
>  <molecule>
O=[N+]([O-])c1ccccc1N/N=C/c1c[nH]c2ccccc12

>  <group label>
inactive

$$$$
>  <molecule>
O=C(O)c1cccc(NC(=O)c2cccc(S(=O)(=O)Nc3cccc([N+](=O)[O-])c3)c2)c1

>  <group label>
active

$$$$
>  <molecule>
O=C(O)c1ccc(N/N=C/c2cn(Cc3ccc(F)cc3)c3ccccc23)cc1

>  <group label>
active

$$$$
>  <molecule>
CN(CC(=O)Nc1ccccc1Cl)C(=O)COC(=O)c1ccc([N+](=O)[O-])s1

>  <group label>
active

$$$$
>  <molecule>
Cc1nc(Cl)sc1C(=O)Nc1ccc2ccccc2c1

>  <group label>
active

$$$$
>  <molecule>
COCC(C)n1c(C)cc(C(=O)COC(=O)c2n[nH]c3ccccc23)c1C (configuration not stated)

>  <group label>
active

$$$$
